Measured values drawn from patent US9115122B2 for this set.

# TESTED_ON: ERK2 L114A (Rattus norvegicus (Rat), UniProt P63086, L114A)
# Sequence (P63086 whole entry L114A): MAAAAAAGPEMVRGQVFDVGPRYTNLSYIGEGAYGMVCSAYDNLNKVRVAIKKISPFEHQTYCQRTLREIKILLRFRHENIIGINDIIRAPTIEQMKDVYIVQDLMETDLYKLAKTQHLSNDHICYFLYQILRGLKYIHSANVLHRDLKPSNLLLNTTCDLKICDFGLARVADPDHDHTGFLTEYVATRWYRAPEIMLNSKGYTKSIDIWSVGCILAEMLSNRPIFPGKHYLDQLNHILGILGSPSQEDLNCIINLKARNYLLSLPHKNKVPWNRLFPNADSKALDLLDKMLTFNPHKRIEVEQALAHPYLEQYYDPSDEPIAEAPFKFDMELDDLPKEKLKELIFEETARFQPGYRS
# PROTOCOL_TEXT: Fluorescence quenching (FQ) binding affinity
# STATED_CONDITIONS: read-out: KD L114A (Site 2)
ASSAY_METRIC: Kd

Query :: Using the record for O=S1(=O)C=CC(OS(=O)(=O)c2ccccc2)C1 (stereo not shown) , report its Kd.
Result :: 27 nM

----------
# TESTED_ON: ERK2 L198A/L232A (Rattus norvegicus (Rat), UniProt P63086, L198A/L232A)
# Sequence (P63086 whole entry L198A/L232A): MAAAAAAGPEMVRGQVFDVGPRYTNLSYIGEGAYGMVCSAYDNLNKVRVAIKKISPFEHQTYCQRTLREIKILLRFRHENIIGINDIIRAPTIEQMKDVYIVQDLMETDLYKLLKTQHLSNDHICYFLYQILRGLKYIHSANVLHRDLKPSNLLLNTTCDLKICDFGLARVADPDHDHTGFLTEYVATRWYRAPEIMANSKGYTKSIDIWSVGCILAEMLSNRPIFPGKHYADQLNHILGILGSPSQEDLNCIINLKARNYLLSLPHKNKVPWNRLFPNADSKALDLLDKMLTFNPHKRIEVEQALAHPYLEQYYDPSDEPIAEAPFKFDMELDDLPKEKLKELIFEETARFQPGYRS
# PROTOCOL_TEXT: Fluorescence quenching (FQ) binding affinity
# STATED_CONDITIONS: read-out: KD L198A/L232A (Site 5)
ASSAY_METRIC: pKd
// scale note: pKd = -log10(conc_M); give the bare number

Query :: Using the record for O=S1(=O)C=CC(OS(=O)(=O)c2ccccc2)C1 (stereo not shown) [SF-3-026] , report its pKd.
Result :: 6.85
